Target: D(2) dopamine receptor (Rattus norvegicus)
Sequence (P61169 whole entry): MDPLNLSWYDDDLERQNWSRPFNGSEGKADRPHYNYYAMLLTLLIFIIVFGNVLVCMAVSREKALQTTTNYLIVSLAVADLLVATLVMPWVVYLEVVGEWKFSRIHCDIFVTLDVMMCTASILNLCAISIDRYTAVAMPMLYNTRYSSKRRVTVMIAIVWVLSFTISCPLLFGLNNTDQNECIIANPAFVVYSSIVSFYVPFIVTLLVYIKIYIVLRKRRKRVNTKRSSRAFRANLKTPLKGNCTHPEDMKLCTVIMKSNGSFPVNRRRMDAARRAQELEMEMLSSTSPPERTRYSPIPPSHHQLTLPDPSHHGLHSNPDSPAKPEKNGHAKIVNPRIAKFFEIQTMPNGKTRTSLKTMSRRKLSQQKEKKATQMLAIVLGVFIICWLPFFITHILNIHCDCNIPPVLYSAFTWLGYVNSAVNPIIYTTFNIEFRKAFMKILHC
Assay: Displacement of [3H]spiperone from dopamine D2 receptor in rat striatum tissue after 20 mins by scintillation counting
Reported Ki is given for each of the following compounds.

compound: O=C(N[C@H]1CC2CC[C@H](C1)N2Cc1ccco1)c1cccc2ccccc12 (single isomer, unassigned)
Ki, µM: 66.7
//
compound: O=C(N[C@@H]1CC2CC[C@H](C1)N2Cc1ccccc1)c1ccc2ccccc2c1 (single isomer, unassigned)
Ki, µM: 0.0824
//
compound: COc1cc(C(=O)N[C@H]2CC3CC[C@H](C2)N3Cc2ccco2)cc(OC)c1OC (single isomer, unassigned)
Ki, µM: 52.2
//
compound: COc1cccc(C(=O)N[C@@H]2CC3CC[C@H](C2)N3Cc2cccnc2)c1OC (single isomer, unassigned)
Ki, µM: 0.0115
